- Tested on: NCI-H1048 cells
- experimental-details: MTT proliferation assay, NCI-H1048;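 further: Dose-response in 96-well plates over 8 or 10 concentration points, with exposure spanning 3-4 cell doublings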
- Format: cell-based
- assay-setup: 5 days compound exposure, 1:3 serial dilution starting at 10 μM
*1 amine or outer side, *2 acyl side, *3 side chain or, on linkers, in order; H or OH if unused. Where a SMILES comes first, the peptide text is derived from it. Bridges are numbered along the chain shown (N, C = ends). [ ]: non-standard residue; d: D form. The star is where a group is joined. X138 = CN([C@@H](Cc1cc(Cl)ccc1-c1ccc(S(=O)(=O)N2CCCC2)cc1)C(=O)[*:2])[*:1]; X122 = CN([C@@H](Cc1cc(Cl)ccc1C1=CCN(C(=O)C(C)(C)C)CC1)C(=O)[*:2])[*:1]; NMehhhLys(Me) = CN([C@@H](CCCCCCCN(C)[*:3])C(=O)[*:2])[*:1]; NMe(hhhLys) = CN([C@@H](CCCCCCCN[*:3])C(=O)[*:2])[*:1]; cBuCO(3,3-F2-1-CF3) = O=C(C1(C(F)(F)F)CC(F)(F)C1)*; Pro(trans-4-F) = O=C(O)[C@@H]1C[C@@H](F)CN1; Gly(cPr) = N[C@H](C(=O)O)C1CC1
I'd be grateful if you could share measured GI50 for these entries.

Per the records, this compound ( "CC(C)C[C@@H]1NC(=O)[C@@H](N(C)C(=O)[C@@H](NC(=O)[C@@H]2C[C@@H](F)CN2C(=O)C2(C(F)(F)F)CCC2)C2CC2)CC=CCCCCNC(=O)[C@H](Cc2cc(F)cnc2OC2CC2)N(C)C1=O" ) has GI50 equal to 570 nM

Per the records, this compound ( CC(C)C[C@@H]1NC(=O)[C@@H](N(C)C(=O)[C@@H](NC(=O)[C@@H]2C[C@@H](F)CN2C(=O)C2(C(F)(F)F)CC(F)(F)C2)C2CC2)CCCCCCCNC(=O)[C@H](Cc2cc(Cl)ccc2C2=CCN(C(=O)C(C)(C)C)CC2)N(C)C1=O [Example 99] ({cBuCO(3,3-F2-1-CF3)}-[Pro(trans-4-F)][Gly(cPr)][NMe(hhhLys)]L[X122]; lactam 3-C) ) has GI50 equal to 20 nM

Per the records, this compound ( CC(C)C[C@@H]1NC(=O)[C@@H](N(C)C(=O)[C@@H](NC(=O)[C@@H]2C[C@@H](F)CN2C(=O)C2(C(F)(F)F)CC(F)(F)C2)C2CC2)CCCCCCCN(C)C(=O)[C@H](Cc2cc(Cl)ccc2-c2ccc(S(=O)(=O)N3CCCC3)cc2)N(C)C1=O [Example 266] ({cBuCO(3,3-F2-1-CF3)}-[Pro(trans-4-F)][Gly(cPr)][NMehhhLys(Me)]L[X138]; lactam 3-C) ) has GI50 equal to 30 nM

Per the records, this compound ( "CC(C)C[C@@H]1NC(=O)[C@@H](N(C)C(=O)[C@@H](CC(=O)[C@@H]2C[C@@H](F)CN2C(=O)C2(C(F)(F)F)CC(F)(F)C2)C2CC2)CCCCCCN(C)C(=O)[C@H](Cc2cc(Cl)ccc2C2=CCOCC2)N(C)C1=O" ) has GI50 equal to 70 nM
